Reference for the values: PubChem BioAssay (EPA / NIEHS)

# Read-out: Interferon-gamma inducible Protein 10 (IP10), CXCL10 (gene 3627)
# Test Description: BSK_KF3CT_IP10: BioMAP Diversity Plus: KF3CT Assay for Interferon-gamma inducible Protein 10 (IP10) Biomarker Activity (AID 2283068)
# Condition Info: primary human keratinocytes with fibroblasts; actives raise or lower the signal
Active and inactive are the calls of the source. Rule for the calls: active = hit-call score of the fitted dose curve at least 0.9, where 1 is the maximum; inactive = score below 0.9.
Observed Property: outcome

Look over these answered cases.
NC(=O)C(F)(F)C(F)(F)C(F)(F)C(F)F: inactive
O=C(O)C(F)(F)C(F)(F)C(F)(F)OC(F)(F)F: inactive
O=C(O)C(F)(F)C(F)(F)C(F)(F)C(F)(F)C(F)(F)C(F)(F)C(F)F: inactive
Nc1cc([N+](=O)[O-])cc(Cl)c1O: inactive
O=C(O)C(F)(F)OC(F)(F)C(F)(F)OC(F)(F)C(F)(F)OC(F)(F)F: inactive
OCC(O)CC(F)(F)C(F)(F)C(F)(F)C(F)(F)F (stereo unspecified): inactive
CCOC(=O)CC(=O)C(F)(F)C(F)(F)F: inactive
NC(=O)C(F)(F)C(F)(F)C(F)(F)C(F)(F)C(N)=O: inactive

The recorded outcome for entry "C=CC(=O)OCC(F)(F)C(F)(F)C(F)(F)C(F)(F)C(F)(F)C(F)(F)C(F)(F)C(F)F" equals inactive

outcome reported for this molecule "NCC(F)(F)C(F)(F)C(F)(F)C(F)(F)C(F)(F)C(F)(F)F" : inactive

molecule "NCC(F)(F)C(F)(F)C(F)(F)C(F)(F)C(F)(F)C(F)(F)C(F)(F)C(F)(F)F" , outcome observed: inactive

---

# Read-out: Plasminogen activator inhibitor-1 (PAI1), SERPINE1 (gene 5054)
# Test Description: BSK_hDFCGF_PAI1: BioMAP Diversity Plus: hDFCGF Assay for Plasminogen activator inhibitor-1 (PAI1) Biomarker Activity (AID 2283066)
# Condition Info: primary human foreskin fibroblasts; actives raise or lower the signal
The source made the active and inactive calls. The calls were made as follows: active = hit-call score of the fitted dose curve at least 0.9, where 1 is the maximum; inactive = score below 0.9.
Form entry, call: pick from true (1) = active, false (0) = inactive

Illustrative cases are given below, each with its answer.
O=C(O)C(F)(F)OC(F)(F)C(F)(F)OC(F)(F)C(F)(F)OC(F)(F)F: false (0)
C=CC(=O)OCC(F)(F)C(F)(F)C(F)(F)C(F)(F)C(F)(F)C(F)(F)C(F)(F)C(F)F: false (0)

Test call, this compound: "O=C(F)C1(F)C(F)(F)C(F)(F)C(F)(F)C(F)(F)C1(F)F"
false (0)

---

# Test Description: CCTE_Deisenroth_5AR_NBTE_acceptor: CCTE's 5alpha-reductase NanoBRET Target Engagement Assay - Autofluorescence Screen, Deisenroth Lab (AID 2284321);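 note: compound fluorescence in the acceptor channel under 460 nm excitation flags autofluorescence artifacts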
# Condition Info: actives raise or lower the signal
Active and inactive are the calls of the source. The calls were made as follows: active = hit-call score of the fitted dose curve at least 0.9, where 1 is the maximum; inactive = score below 0.9.
Entry note: the call must match one of Yes (active), No (inactive)

Worked set:
CC(C)Nc1ccc(NC(C)C)c2c1C(=O)c1ccccc1C2=O: No
CCCCCCCCCCCCC[N+](C)(C)Cc1ccccc1: Yes
CCCCCCCCCc1ccc(OCCO)cc1: Yes
O=C1C=CC(=O)N1c1ccccc1: Yes

Next item in the queue.
Per the records of this test, what outcome belongs to "CCN=c1cc2oc3cc(NCC)c(C)cc3c(-c3ccccc3C(=O)OCC)c-2cc1C" ?
Yes

---

# Test Description: CEETOX_H295R_ESTRADIOL: CeeTox H295R High-throughput Steroidogenesis Assay for Estradiol (AID 2283440);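 note: estradiol secreted into medium quantified by LC-MS/MS after dansyl derivatisation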
# Condition Info: actives raise or lower the signal
The source made the active and inactive calls. How the source made its calls: active means hit-call score of the fitted dose curve at least 0.9, where 1 is the maximum; inactive means score below 0.9.
Return exactly one item of YES (active), NO (inactive)

Use the examples below as a reference point.
CN1CN(C)CN(C)C1: NO
CC1CCCCC1: NO
O=C1C=CC(=O)N1c1ccccc1: NO
O=c1[nH]cccc1O: NO
CCCCCCCCCCCCC[N+](C)(C)Cc1ccccc1: NO
Oc1ccc2c(c1)CCC2: YES
Cc1cccc(C)n1: NO
Cc1cc(O)c(C(C)(C)C)cc1C(C)(C)C: NO
CCCCCCCCCc1ccc(OCCO)cc1: NO

Turning now to a further record.
Just curious, what result did "CCOCOCC" get here?
NO
